// provenance: patent US6825199B2

Each entry below carries its measured MIC, system: S. pyogenes C203.
Answers are plain numbers, in µg/mL.

Recorded results for 2 molecules are shown here.
# molecule, MIC [µg/mL]
data = [
    ("O=c1c2cc(F)c(N3CCCC3)cc2n(C2CC2)c(=O)n1O", 16),
    ("CCn1c(=O)n(O)c(=O)c2cc(F)c(N3CCC(N)C3)nc21.O=C(O)C(F)(F)F (stereo not shown)", 32),
]

stdin: Returns the measured MIC for the input molecule. Input: O=c1c2cc(F)c(N3CCCC3)c3c2n(c(=O)n1O)CCS3
stdout: 32

----------
Hi there, I'd appreciate the recorded IC50 for every entry that follows.
Molecular target: E. coli Topoisomerase IV (Escherichia coli, UniProt P0AFI2+P20083)
Construct: made in house; host or cells: E. coli overexpressing strains
Sequence (P20083 whole entry): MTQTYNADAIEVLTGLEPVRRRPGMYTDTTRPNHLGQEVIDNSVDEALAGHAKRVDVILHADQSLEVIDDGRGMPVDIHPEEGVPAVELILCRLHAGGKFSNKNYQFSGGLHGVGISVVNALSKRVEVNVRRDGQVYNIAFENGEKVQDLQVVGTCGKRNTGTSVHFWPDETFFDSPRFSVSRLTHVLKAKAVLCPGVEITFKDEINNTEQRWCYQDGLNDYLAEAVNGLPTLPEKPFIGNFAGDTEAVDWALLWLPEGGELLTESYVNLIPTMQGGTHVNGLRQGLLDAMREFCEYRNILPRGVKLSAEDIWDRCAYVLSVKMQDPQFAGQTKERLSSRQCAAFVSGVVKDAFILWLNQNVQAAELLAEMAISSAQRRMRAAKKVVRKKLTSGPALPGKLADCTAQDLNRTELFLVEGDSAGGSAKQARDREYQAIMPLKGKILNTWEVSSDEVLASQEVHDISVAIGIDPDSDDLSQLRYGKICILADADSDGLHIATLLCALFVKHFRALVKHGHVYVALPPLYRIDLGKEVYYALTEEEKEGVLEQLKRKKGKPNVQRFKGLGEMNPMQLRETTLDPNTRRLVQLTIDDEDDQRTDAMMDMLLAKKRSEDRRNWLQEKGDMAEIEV
Sequence (P0AFI2 whole entry): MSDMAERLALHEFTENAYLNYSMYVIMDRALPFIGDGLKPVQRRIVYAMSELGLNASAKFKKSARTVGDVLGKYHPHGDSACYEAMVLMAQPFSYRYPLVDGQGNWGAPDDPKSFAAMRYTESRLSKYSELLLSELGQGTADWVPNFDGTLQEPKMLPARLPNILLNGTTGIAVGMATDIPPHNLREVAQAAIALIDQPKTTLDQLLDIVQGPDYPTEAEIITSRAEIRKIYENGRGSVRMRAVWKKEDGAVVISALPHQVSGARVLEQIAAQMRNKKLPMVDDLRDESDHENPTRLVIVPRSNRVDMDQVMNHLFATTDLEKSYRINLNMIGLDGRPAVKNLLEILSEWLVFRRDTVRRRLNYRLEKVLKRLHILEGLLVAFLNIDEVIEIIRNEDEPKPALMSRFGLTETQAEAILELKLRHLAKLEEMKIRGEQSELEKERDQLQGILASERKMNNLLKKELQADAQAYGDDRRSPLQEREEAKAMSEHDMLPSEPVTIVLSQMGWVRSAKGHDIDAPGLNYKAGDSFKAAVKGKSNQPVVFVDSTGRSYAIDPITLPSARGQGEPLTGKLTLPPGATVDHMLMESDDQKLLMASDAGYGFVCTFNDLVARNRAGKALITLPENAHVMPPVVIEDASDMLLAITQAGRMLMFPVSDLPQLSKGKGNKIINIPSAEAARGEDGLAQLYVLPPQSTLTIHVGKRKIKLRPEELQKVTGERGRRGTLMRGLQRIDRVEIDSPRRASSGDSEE
Assay: Topoisomerase IV k-DNA decatenation assay
Format: biochemical
Conditions: k-DNA decatenation, 10 minutes at 37° C.; read-out: DNA TopIV IC50

Worked cases, answers included:
# chemical.string, IC50
records = [
    ("O=c1c2cc(F)c(N3CCCC3)c3c2n(c(=O)n1O)CCS3", "> 100 µM"),
    ("COc1cccc(-n2c(=O)n(O)c(=O)c3cc(F)c(N4CCCC4)cc32)c1", "> 100 µM"),
]

Next compound, IC50 to be filled in.
stdin: So what does the record say about IC50 for O=c1c2cc(F)c(N3CCCC3)nc2n(C2CC2)c(=O)n1O ?
stdout: > 100 µM
